Tested on: HLE (Hepatocellular Carcinoma)
Assay: combination Emax (second highest fraction inhibited in the dose matrix, 72 h); higher = more inhibition; extreme values may be limits of the assay
REPORTED_ENDPOINT: combination Emax
// no unit string in output, number only

| COMPOUND | REPORTED_ENDPOINT | RESULT_VALUE |
| --- | --- | --- |
| COc1cccc2c1C(=O)c1c(O)c3c(c(O)c1C2=O)C[C@@](O)(C(=O)CO)C[C@@H]3O[C@H]1C[C@H](N)[C@H](O)[C@H](C)O1 [Doxorubicin] + Cc1cc2ncnn2cc1Nc1ncc2c(n1)n(C1CCOCC1)c(=O)n2C [AZD7648] (first compound max 1 µM, 7x7, partner max 10 µM) | combination Emax | 0.812 |

Now look at this entry.
Quick check: combination Emax of N#Cc1cnc(Nc2cc(NC[C@H]3CNCCO3)c(C(F)(F)F)cn2)cn1 [SRA737] + CCc1c2c(nc3ccc(O)cc13)-c1cc3c(c(=O)n1C2)COC(=O)[C@]3(O)CC [SN-38] (first compound max 10 µM, 7x7, partner max 0.3 µM) ?
0.798

---

Tested on: PA-TU-8902 (Pancreatic Carcinoma);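 also: after 72 h of two-drug dosing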
Assay: Bliss excess, mean over the matrix (fraction); higher = more synergy
REPORTED_ENDPOINT: Bliss excess

Example cases with answers are listed next.
| COMPOUND | Bliss excess |
| --- | --- |
| Cc1c2c(nn1C)CSCc1cc(n(C)n1)CSc1cc(c3ccccc3c1)OCCCc1c(C(=O)O)n(C)c3c-2c(Cl)ccc13 [AZD5991] + C=CCn1c(=O)c2cnc(Nc3ccc(N4CCN(C)CC4)cc3)nc2n1-c1cccc(C(C)(C)O)n1 [AZD1775] (first compound max 1 µM, partner max 1 µM) | -0.0326 |
| CC1(C)CCC(CN2CCN(c3ccc(C(=O)NS(=O)(=O)c4ccc(NCC5CCOCC5)c([N+](=O)[O-])c4)c(Oc4cnc5[nH]ccc5c4)c3)CC2)=C(c2ccc(Cl)cc2)C1 [Venetoclax] + CN(C)CCCOc1ccc(-c2ccc3ncc4c(c3c2)n(C2CCOCC2)c(=O)n4C)cn1 [AZD0156] (first compound max 1 µM, 7x7, partner max 1 µM) | -0.0507 |

Now look at this entry.
Enter reported Bliss excess observed with PA-TU-8902 (Pancreatic Carcinoma) for CS(=O)(=O)CCNCc1ccc(-c2ccc3ncnc(Nc4ccc(OCc5cccc(F)c5)c(Cl)c4)c3c2)o1 [Lapatinib] + C[C@@H](Oc1cc(-c2cnn(C3CCNCC3)c2)cnc1N)c1c(Cl)ccc(F)c1Cl [Crizotinib] (first compound max 10 µM, 7x7, partner max 10 µM)
0.0068

---

System: JHH-6 (Hepatocellular Carcinoma)
Experiment: combination Emax (second highest fraction inhibited in the dose matrix, 72 h); higher = more inhibition; extreme values may be limits of the assay
List of combination Emax values.
// no unit string in output, number only

Example cases with answers are listed next.
| COMPOUND | REPORTED_ENDPOINT | RESULT_VALUE |
| --- | --- | --- |
| CC1(C)CCC(CN2CCN(c3ccc(C(=O)NS(=O)(=O)c4ccc(NCC5CCOCC5)c([N+](=O)[O-])c4)c(Oc4cnc5[nH]ccc5c4)c3)CC2)=C(c2ccc(Cl)cc2)C1 [Venetoclax] + Cc1cc2ncnn2cc1Nc1ncc2c(n1)n(C1CCOCC1)c(=O)n2C [AZD7648] (first compound max 1 µM, 7x7, partner max 10 µM) | combination Emax | 0.212 |
| COc1nnc2ccc(N3CCC(c4ccc(OCCN5CCN(C)C(=O)[C@H]5C)cc4)CC3)nn12 [AZD5153] + CN(CC[C@H](CSC1=CC=CC=C1)NC2=C(C=C(C=C2)S(=O)(=O)NC(=O)C3=CC=C(C=C3)N4CCC(CC4)[C@H](C5=CC=CC=C5C6=CC=C(C=C6)Cl)O)S(=O)(=O)C(F)(F)F)CCO [AZD4320] (first compound max 1 µM, 7x7, partner max 1 µM) | combination Emax | 0.521 |

Now look at this entry.
Enter reported combination Emax observed with JHH-6 (Hepatocellular Carcinoma) for COc1nnc2ccc(N3CCC(c4ccc(OCCN5CCN(C)C(=O)[C@H]5C)cc4)CC3)nn12 [AZD5153] + CCN(CCO)CCCOc1ccc2c(Nc3cc(CC(=O)Nc4cccc(F)c4)[nH]n3)ncnc2c1 [AZD2811] (first compound max 1 µM, 7x7, partner max 1 µM)
0.552
